- assay method text: Cytotoxicity Determination (CCK-8, without addition of virus)
- Type: cell-based
- applied conditions: human, 50% cytotoxicity concentration (CC50)
observable: CC50 at 5 days

Ask: Could you tell me which CC50 at 5 days is on file for COc1ccc(C(=O)NCC(O)c2cc(C)cc(-c3csc4c(F)cccc34)n2)cc1OC (centres unmarked) ?
Result: 10 to 100 µM

Ask: Consider the compound COc1ccc(C(C)(O)CNC(=O)c2ccc(-c3nc(C)no3)cc2)nc1-c1ccc(F)c(Cl)c1 (centres unmarked) and give its measured CC50 at 5 days.
Result: > 100 µM

Ask: Which measured CC50 at 5 days value corresponds to COc1cc(C(=O)NCC(O)(c2ccc(OC)c(-c3ccc(F)c(Cl)c3)n2)C2CC2)ccc1OC(C)(F)F (centres unmarked) ?
Result: 10 to 100 µM

Ask: Could you tell me which CC50 at 5 days is on file for COc1cc(C(=O)NCC(O)(c2ccc(OC)c(-c3ccc(F)c(Cl)c3)n2)C(F)F)ccc1OC[C@@H](C)O (some centres unmarked) ?
Result: 10 to 100 µM

Ask: Entry COc1cc(C(=O)NCC(O)(c2ccc(OC)c(-c3ccc(F)c(Cl)c3)n2)C(F)(F)F)ccc1OCC(F)(F)F (centres unmarked) has what CC50 at 5 days?
Result: > 100 µM

* * *

In this section we review reported pEC50 values for a set of compounds.
- Tested on: Respiratory Syncytial Virus (RSV) long strain
- assay method text: microbe, parasite or virus in culture
- Format: cell-based
- applied conditions: human respiratory syncytial virus, HEp-2, 120 h, read-out: 50% effective concentration (EC50), HEp-2 cells infected with RSV long strain, 5 days, CCK-8 readout; Tables A and B list compounds by EC50 band
pEC50: −log10 of the molar value.

Known pEC50 results, listed for orientation:
• COc1cc(C(=O)NCC(O)(c2ccc(OC)c(-c3ccc(F)c(Cl)c3)n2)C(F)(F)F)ccc1OCC(N)=O (single isomer, unassigned) = > 6.00
• COc1cc(C(=O)NCC(O)(c2cc3c(c(-c4ccc(F)cc4)n2)OCC3(C)N)C(F)(F)F)ccc1OC[C@@H](C)O (stereo partly shown) = > 6.00
• COc1cc(C(=O)NCC(O)(c2cc(C(C)(C)N)cc(-c3ccc(F)c(Cl)c3)n2)C(F)(F)F)ccc1OCS(N)(=O)=O (stereo not shown) = 4.30 to 6.00
• COc1cc(C(=O)NCC(O)(c2cc(C(C)(C)N)cc(-c3ccc(F)c(C(F)(F)F)c3)n2)C(F)(F)F)ccc1OC1CC1 (stereo not shown) = > 6.00
• COc1cc(C(=O)NCC(O)(c2ccc(OC)c(-c3ccc(F)c(Cl)c3)n2)C2CC2)ccc1Cn1ccnc1 (stereo not shown) = 4.30 to 6.00

Ask: Look up pEC50 for this compound: COc1cc(C(=O)NCC(O)(CO)c2cc3c(c(-c4ccc(F)c(Cl)c4)n2)OCC3(C)C)ccc1OC1CCNC1=O (stereo not shown)
Result: > 6.00

Ask: Report pEC50 for COc1cc(C(=O)NCC(=O)c2cc3c(c(-c4ccc(F)c(Cl)c4)n2)OCC3(C)C)ccc1OC1CCNC1=O (stereo not shown) please.
Result: > 6.00

Ask: Look up pEC50 for this compound: COc1cc(C(=O)NCC(C)(O)c2ccc(OC)c(-c3ccc(F)c(Br)c3)n2)ccc1OCCF (racemic)
Result: > 6.00

* * *

- assay method text: Cytotoxicity Determination (CCK-8, without addition of virus)
- Type: cell-based
- applied conditions: human, 50% cytotoxicity concentration (CC50)
observable: CC50 at 5 days

Reference set (5 entries):
* COc1cc(C(=O)NCC(=O)c2cc3c(c(-c4ccc(F)c(Cl)c4)n2)OCC3(C)C)ccc1OC1CCNC1=O (centres unmarked) | 10 to 100 µM
* COc1ccc(C(O)(CNC(=O)c2ccc(OC[C@@H](C)O)c(Cl)c2)C(F)(F)F)nc1-c1ccc(F)c(Cl)c1 (some centres unmarked) | 10 to 100 µM
* COc1cc(C(=O)NCC(C)(O)c2ccc(OC)c(-c3ccc(F)c(Cl)c3)n2)ccc1OCCO (racemic) | > 100 µM
* COc1cc(C(=O)NCC(O)(c2cc3c(c(-c4ccc(CO)cc4)n2)OCC3(C)N)C(F)(F)F)ccc1OCCO (centres unmarked) | > 100 µM
* COc1cc(C(=O)NCC(O)(c2ccc(OC)c(-c3ccc(F)c(Cl)c3)n2)C(F)(F)F)ccc1OC1CCCC1 (centres unmarked) | > 100 µM

Ask: Given COc1cc(C(=O)NCC(O)(c2cc3c(c(-c4ccc(F)cc4)n2)OCC3(N)C(C)C)C(F)(F)F)ccc1OC1CC1 (centres unmarked) , state its recorded CC50 at 5 days.
Result: 10 to 100 µM

* * *

- System: RSV replicon
- assay method text: microbe, parasite or virus in culture
- Format: cell-based
- applied conditions: human respiratory syncytial virus, read-out: EC50, the concentration of the drug required for reducing RSV replicon RNA by 50%
// reported EC50 for each item listed

Record excerpt, results attached:
* CCNC(C)(C)c1cc(-c2ccc(F)cc2)nc(C(O)(CNC(=O)c2ccc(OC3CC3)c(OC)c2)C(F)(F)F)c1 (stereo not drawn) [Compound 388] | < 1 µM
* COc1cc(C(=O)NCC(O)(c2cc(C(C)(C)NC(C)=N)cc(-c3ccc(F)c(Cl)c3)n2)C(F)(F)F)ccc1OC1CC1 (stereo not drawn) [Compound 579] | < 1 µM

Ask: Value lookup for EC50; key = COc1cc(C(=O)NCC(O)(c2cc(C(C)(C)NC(C)=O)cc(-c3ccc(F)cc3)n2)C(F)(F)F)ccc1OCC(N)=O (stereo not drawn) [Compound 621]
Result: < 1 µM

* * *

- tgt: recombinant RSV complex (Human respiratory syncytial virus A)
- Sequence (P28887 whole entry): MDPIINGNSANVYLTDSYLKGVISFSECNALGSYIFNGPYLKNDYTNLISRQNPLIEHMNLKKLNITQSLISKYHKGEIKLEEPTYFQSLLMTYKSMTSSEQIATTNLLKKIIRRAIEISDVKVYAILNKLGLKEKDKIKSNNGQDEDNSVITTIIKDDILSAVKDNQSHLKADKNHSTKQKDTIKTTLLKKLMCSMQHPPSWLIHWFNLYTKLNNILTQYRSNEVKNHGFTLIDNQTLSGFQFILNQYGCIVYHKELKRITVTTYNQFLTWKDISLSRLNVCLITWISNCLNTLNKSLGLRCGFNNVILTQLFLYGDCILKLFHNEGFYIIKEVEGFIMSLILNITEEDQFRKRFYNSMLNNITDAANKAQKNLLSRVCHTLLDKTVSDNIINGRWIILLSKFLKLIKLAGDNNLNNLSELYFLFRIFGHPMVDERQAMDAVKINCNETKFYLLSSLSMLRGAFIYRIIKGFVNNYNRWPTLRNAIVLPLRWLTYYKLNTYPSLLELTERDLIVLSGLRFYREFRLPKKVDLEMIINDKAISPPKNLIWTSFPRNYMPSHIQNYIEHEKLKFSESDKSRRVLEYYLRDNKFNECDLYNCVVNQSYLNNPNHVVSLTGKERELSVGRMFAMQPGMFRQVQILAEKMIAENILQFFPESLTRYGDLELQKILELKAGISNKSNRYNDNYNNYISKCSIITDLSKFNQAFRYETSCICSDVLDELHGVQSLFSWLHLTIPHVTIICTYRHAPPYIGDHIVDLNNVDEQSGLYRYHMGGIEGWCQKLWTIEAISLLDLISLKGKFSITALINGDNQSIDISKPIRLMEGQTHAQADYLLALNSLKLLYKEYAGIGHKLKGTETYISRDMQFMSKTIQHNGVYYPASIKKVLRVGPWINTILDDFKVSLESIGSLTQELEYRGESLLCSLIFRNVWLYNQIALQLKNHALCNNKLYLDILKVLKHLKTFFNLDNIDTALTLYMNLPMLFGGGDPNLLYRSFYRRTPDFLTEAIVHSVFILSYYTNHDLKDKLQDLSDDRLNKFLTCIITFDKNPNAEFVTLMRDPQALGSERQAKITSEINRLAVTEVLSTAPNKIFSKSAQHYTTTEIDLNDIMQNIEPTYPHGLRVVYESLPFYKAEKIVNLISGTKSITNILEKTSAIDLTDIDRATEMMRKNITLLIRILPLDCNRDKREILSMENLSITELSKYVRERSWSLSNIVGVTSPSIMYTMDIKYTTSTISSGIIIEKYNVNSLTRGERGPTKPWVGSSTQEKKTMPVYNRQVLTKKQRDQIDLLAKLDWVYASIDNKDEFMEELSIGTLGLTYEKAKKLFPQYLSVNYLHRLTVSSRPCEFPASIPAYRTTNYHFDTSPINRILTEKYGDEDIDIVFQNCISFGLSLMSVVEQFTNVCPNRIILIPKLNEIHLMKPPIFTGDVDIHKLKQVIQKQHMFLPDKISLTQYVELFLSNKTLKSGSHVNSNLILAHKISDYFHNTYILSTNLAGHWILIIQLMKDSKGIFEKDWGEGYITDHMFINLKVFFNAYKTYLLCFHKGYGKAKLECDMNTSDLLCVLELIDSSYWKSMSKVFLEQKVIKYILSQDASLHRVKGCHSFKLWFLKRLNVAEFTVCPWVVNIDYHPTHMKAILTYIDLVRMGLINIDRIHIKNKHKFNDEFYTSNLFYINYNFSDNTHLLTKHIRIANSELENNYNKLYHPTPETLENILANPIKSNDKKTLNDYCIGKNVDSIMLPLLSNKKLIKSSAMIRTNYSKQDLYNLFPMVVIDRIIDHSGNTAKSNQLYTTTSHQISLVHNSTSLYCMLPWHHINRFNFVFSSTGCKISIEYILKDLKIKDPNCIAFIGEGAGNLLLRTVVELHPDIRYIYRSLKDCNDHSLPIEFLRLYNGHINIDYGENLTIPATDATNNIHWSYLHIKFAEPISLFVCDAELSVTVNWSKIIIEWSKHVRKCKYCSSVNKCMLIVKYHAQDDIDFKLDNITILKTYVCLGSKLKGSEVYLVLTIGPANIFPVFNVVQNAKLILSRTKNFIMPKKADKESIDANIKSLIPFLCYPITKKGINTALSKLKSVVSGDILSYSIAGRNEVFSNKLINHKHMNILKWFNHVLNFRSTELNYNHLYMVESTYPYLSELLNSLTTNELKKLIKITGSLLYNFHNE
- Sequence (P03421 whole entry, further chain): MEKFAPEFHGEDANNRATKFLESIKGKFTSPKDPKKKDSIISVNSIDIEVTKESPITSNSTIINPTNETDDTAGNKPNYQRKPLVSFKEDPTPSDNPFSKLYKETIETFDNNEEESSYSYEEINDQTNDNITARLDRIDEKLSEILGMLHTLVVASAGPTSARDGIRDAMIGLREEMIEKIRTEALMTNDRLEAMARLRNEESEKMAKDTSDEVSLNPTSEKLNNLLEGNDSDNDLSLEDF
- assay method text: RSV Polymerase Inhibition Assay
- Type: biochemical
- Method: Standard RSV polymerase assays were conducted in the presence of 10 nM recombinant RSV complex in a reaction buffer containing Tris-HCl pH7.5, 6 mM MgCl2, and other additives and substrates including RNA oligonucleotides and radionucleotides. Standard reactions were incubated in 96-well plate format for 2 h at 30° C., in the presence of increasing concentration of inhibitor. The reaction was stopped with 90 μL of 0.1M EDTA, and the reaction product was transferred to a “reading” 96-well plate. […]
The reader will find reported IC50 values listed item by item below.

• COc1cc(C(=O)NCC(C)(O)c2ccc(OC)c(-c3ccc(F)c(Cl)c3)n2)ccc1OC(C)(C)C (stereo not shown) = < 1000 nM

Ask: May I ask what IC50 has been recorded for CC(C)(N)c1cc(-c2ccc(F)cc2)nc(C(O)(CNC(=O)c2ccc3c(c2)NC(=O)C3)C(F)(F)F)c1 (stereo not shown) ?
Result: < 1000 nM

* * *

- Tested on: Respiratory Syncytial Virus (RSV) long strain
- assay method text: microbe, parasite or virus in culture
- Type: cell-based
- applied conditions: human respiratory syncytial virus, HEp-2, 120 h, read-out: 50% effective concentration (EC50), HEp-2 cells infected with RSV long strain, 5 days, CCK-8 readout; Tables A and B list compounds by EC50 band
pEC50: −log10 of the molar value.
observable: pEC50

Some solved cases for reference:
• COc1cc(C(=O)NCC(O)(c2ccc(OC)c(-c3ccc(F)c(Cl)c3)n2)C(F)(F)F)ccc1OC1CCOC1 (stereo not drawn) [Compound 235] = > 6.00
• COc1cc(C(=O)NCC(O)(c2ccc(OC)c(-c3ccc(F)c(Cl)c3)n2)C(F)(F)F)ccc1OCC(F)(F)F (stereo not drawn) [Compound 233] = 4.30 to 6.00

Continue with the next compound.
Ask: # get_value(readout='pEC50', item= COc1cc(C(=O)NCC(O)(c2cc(C(C)(C)N)cc(-c3ccc(F)c(Cl)c3)n2)C(F)(F)F)ccc1OC1CC1 (single isomer, unassigned) [Compound 272] )
Result: > 6.00

* * *

Recorded measurements of pIC50, one per entry
- tgt: recombinant RSV complex (Human respiratory syncytial virus A)
- assay method text: RSV Polymerase Inhibition Assay
- Format: biochemical
pIC50: −log10 of the molar value.

Ask: Returns the measured pIC50 for the input compound. Input: CC(C)(N)c1cc(-c2ccc(F)cc2)nc(C(O)(CNC(=O)c2ccc3c(c2)CNC(=O)N3)C(F)(F)F)c1 (stereo not shown) [Compound 639]
Result: > 6.00

Ask: Can you look up the measured pIC50 of COCCNC(C)(C)c1cc(-c2ccc(F)c(Cl)c2)nc(C(O)(CNC(=O)c2ccc(OC3CC3)c(OC)c2)C(F)(F)F)c1 (stereo not shown) [Compound 505] for me?
Result: > 6.00

Ask: Would you mind telling me what pIC50 value was observed for COc1cc(C(=O)NCC(O)(c2cc(C(C)(C)N)cc(-c3ccc(C(F)(F)F)cc3)n2)C(F)(F)F)ccc1OC1CC1 (stereo not shown) [Compound 523] ?
Result: > 6.00

Ask: Requested read-out: pIC50. Entry: COc1cc(C(=O)NCC(O)(c2cc3c(c(-c4ccc(Cl)c(F)c4)n2)OCC3(C)N)C(F)(F)F)ccc1CO[C@@H](C)O (stereo partly shown) [Compound 666]
Result: > 6.00

Ask: Request the reported pIC50 associated with COc1cc(C(=O)NCC(O)(c2cc(C(C)(C)N)cc(-c3ccc(F)c(Cl)c3)n2)C(F)(F)F)ccc1OCC(C)OC(=O)OC(C)C (stereo not shown) [Compound 572]
Result: > 5.00

The values you see were collected from patent US11021444B2.
